Origin of measurements: ChEMBL document CHEMBL1133575

Molecular target: Sodium-dependent dopamine transporter (Homo sapiens, UniProt Q01959)
Sequence (Q01959 whole entry): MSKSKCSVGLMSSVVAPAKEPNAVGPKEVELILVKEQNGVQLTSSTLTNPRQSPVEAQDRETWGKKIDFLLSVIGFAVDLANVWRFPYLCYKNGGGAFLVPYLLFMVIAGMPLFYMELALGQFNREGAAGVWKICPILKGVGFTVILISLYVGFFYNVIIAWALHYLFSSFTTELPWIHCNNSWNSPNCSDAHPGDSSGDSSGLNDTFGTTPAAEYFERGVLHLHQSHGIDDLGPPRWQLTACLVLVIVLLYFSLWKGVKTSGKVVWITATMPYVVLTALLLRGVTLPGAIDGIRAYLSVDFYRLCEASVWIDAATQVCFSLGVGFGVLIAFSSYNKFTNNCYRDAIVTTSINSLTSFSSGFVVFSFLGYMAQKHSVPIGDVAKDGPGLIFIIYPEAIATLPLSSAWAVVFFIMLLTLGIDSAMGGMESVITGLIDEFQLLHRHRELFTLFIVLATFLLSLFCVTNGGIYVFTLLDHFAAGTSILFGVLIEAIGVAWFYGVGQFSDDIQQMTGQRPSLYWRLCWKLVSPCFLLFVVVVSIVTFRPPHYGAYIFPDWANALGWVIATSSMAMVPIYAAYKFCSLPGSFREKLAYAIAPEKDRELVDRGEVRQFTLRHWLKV
Assay: Binding Affinity to cocaine site of dopamine transporter in caudate nuclei which was homogenized and incubated with [3H]mazindol.
// assign Satisfied if Ki falls strictly below 4 µM, else Not satisfied (ties count as Not satisfied)

compound	assigned_label
Cc1ccc([C@H](O)C2CN(C)CCC2(O)c2ccc(C)cc2)cc1 (stereo not given in full)	Not satisfied

Take the compound CN1CCC(O)(c2ccc(F)cc2)C(C(=O)c2ccc(F)cc2)C1 (stereo not given) and say whether its Ki is less than 4 µM.
Not satisfied

Consider CN1CCC(O)(c2ccc(Cl)cc2Cl)C([C@@H](O)c2ccc(Cl)cc2Cl)C1 (stereo not given in full) . Does its Ki lie strictly below 4 µM?
Not satisfied

# TODO verify Ki < 4 µM strictly for this compound: CN1CCC(O)(c2ccc(Cl)c(Cl)c2)C(C(=O)c2ccc(Cl)c(Cl)c2)C1 (stereo not given)
Satisfied

State whether 4 µM exceeds Ki recorded for CN1CCC(O)(c2ccc(Cl)c(Cl)c2)C([C@@H](O)c2ccc(Cl)c(Cl)c2)C1 (stereo not given in full) .
Not satisfied
